Listed compounds paired with reported IC50
System: p-IKKa levels in L363 (NIK translocated multiple myeloma) cells
Assay: Assay 2: Effect of compounds on p-IKKa levels in L363 (NIK translocated multiple myeloma) cells
Type: cell-based
Conditions: Homo sapiens, L-363, 6 h, read-out: Assay 2 IC50 (nM), p-IKKa (Ser 176/180) in BAFF stimulated L363 cells with MG132, 6 h; average if tested more than once

Cc1nccc(Nc2nccc(-c3cccc(-c4cc([C@]5(O)CCN(C)C5=O)on4)n3)n2)n1; < 50 nM

Query: Quick one: IC50 of C[C@H](Nc1nccc(-c2cccc(-c3cc([C@]4(O)CCN(C)C4=O)on3)n2)n1)c1cnn(C)c1 (single isomer, unassigned) ?
Response: > 500 nM

Query: Next record, please: CN1CC[C@@](O)(c2cc(-c3cccc(-c4ccnc(Nc5ncn(C)n5)n4)n3)no2)C1=O
Response: > 500 nM

Query: Now consider CN1CC[C@@](O)(c2cc(-c3cccc(-c4ccnc(N[C@H]5CCOC5)n4)n3)no2)C1=O .
Response: 50 to 500 nM
